Origin of measurements: ChEMBL document CHEMBL1138900

- SYSTEM UNDER TEST: Oxytocin receptor (Homo sapiens, UniProt P30559)
- Sequence (P30559 whole entry): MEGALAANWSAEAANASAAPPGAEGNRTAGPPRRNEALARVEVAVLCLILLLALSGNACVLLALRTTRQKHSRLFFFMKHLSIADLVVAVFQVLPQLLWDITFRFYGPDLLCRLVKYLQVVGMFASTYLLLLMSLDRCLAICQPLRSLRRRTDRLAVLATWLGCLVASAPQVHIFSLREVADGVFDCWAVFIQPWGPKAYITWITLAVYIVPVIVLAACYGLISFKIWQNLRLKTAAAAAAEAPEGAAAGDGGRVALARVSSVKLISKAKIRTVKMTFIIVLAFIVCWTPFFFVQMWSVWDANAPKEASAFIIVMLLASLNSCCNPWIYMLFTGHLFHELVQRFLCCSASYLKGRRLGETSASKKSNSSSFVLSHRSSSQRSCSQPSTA
- EXPERIMENT: Antagonist activity against human OTR expressed in CHO cells measured as calcium influx by FLIPR assay
- Format: functional, cell-based
The entries below are paired with their reported Ki.
Provide the reading as a plain figure in nM.

| MOLECULE | SYSTEM UNDER TEST | MEASUREMENT UNIT | Ki |
| --- | --- | --- | --- |
| CC(C)C[C@@H]1C(=O)N[C@H](C2Cc3ccccc3C2)C(=O)N1[C@@H](C(=O)NC(C)C)c1ccc2occc2c1 | Oxytocin receptor (Homo sapiens, UniProt P30559) | nM | 3.98 |

Now look at this one.
[in] // Input: `CC(C)C[C@@H]1C(=O)N[C@H](C2Cc3ccccc3C2)C(=O)N1[C@@H](C(=O)N(C)C)c1ccc(F)cc1F` . Output its Ki only.
[out] 1.58

---

- SYSTEM UNDER TEST: Vasopressin V2 receptor (Homo sapiens)
- Sequence (P30518 whole entry): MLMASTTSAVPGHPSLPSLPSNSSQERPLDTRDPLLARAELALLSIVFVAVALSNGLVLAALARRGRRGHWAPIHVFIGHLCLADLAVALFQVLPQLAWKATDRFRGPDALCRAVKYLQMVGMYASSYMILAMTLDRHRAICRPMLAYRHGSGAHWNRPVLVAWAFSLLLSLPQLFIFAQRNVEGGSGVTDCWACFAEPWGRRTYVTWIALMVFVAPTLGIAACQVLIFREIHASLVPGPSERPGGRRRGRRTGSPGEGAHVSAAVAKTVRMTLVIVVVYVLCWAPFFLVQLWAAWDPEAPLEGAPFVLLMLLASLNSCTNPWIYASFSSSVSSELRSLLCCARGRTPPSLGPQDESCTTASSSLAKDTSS
METRIC NAME: pKi
Quick note: pKi means taking -log10 of the concentration in moles per liter.

[in] Please look at `CC(C)C[C@@H]1C(=O)N[C@H](C2Cc3ccccc3C2)C(=O)N1[C@@H](C(=O)N(C)C)c1ccc(F)cc1F` and tell me its recorded pKi on Vasopressin V2 receptor (Homo sapiens).
[out] 6.50

---

- EXPERIMENT: Clearance in dog
- Assay type: ADME, organism-based, Canis lupus familiaris
- CONDITION SET: in vivo
The entries below are paired with their reported clearance.
Provide the reading as a plain figure in mL/min/kg.

Reference set (2 entries):
| MOLECULE | MEASUREMENT UNIT | clearance |
| --- | --- | --- |
| CC(C)C[C@@H]1C(=O)N[C@H](C2Cc3ccccc3C2)C(=O)N1[C@@H](C(=O)NC(C)C)c1ccc2occc2c1 | mL/min/kg | 6 |
| CC(C)C[C@@H]1C(=O)N[C@H](C2Cc3ccccc3C2)C(=O)N1[C@@H](C(=O)NC(C)(C)C)c1ccc(N2CCC(O)CC2)cc1 | mL/min/kg | 21 |

Now look at this one.
[in] // Input: `CC(C)C[C@@H]1C(=O)N[C@H](C2Cc3ccccc3C2)C(=O)N1[C@@H](C(=O)NC(C)C)c1ccc(N(C)C)cc1` . Output its clearance only.
[out] 15

---

- EXPERIMENT: Clearance in rat
- Format: ADME, organism-based
- CONDITION SET: in vivo
METRIC NAME: clearance

Reference set (3 entries):
| MOLECULE | DATA VALUE |
| --- | --- |
| CC(C)C[C@@H]1C(=O)N[C@H](C2Cc3ccccc3C2)C(=O)N1[C@@H](C(=O)N1CCC1)c1ccc(F)cc1F | 22 mL/min/kg |
| CC[C@@H](C)[C@@H]1C(=O)N[C@H](C2Cc3ccccc3C2)C(=O)N1[C@@H](C(=O)NC(C)C)c1ccc(N2CCOCC2)cc1 | 24 mL/min/kg |
| CNC(=O)[C@@H](c1ccc(F)cc1F)N1C(=O)[C@@H](C2Cc3ccccc3C2)NC(=O)[C@H]1CC(C)C | 32 mL/min/kg |

[in] // Input: `CC(C)C[C@@H]1C(=O)N[C@H](C2Cc3ccccc3C2)C(=O)N1[C@@H](C(=O)NC(C)C)c1ccc(F)cc1F` . Output its clearance only.
[out] 36 mL/min/kg

[in] // Input: `CC(C)C[C@@H]1C(=O)N[C@H](C2Cc3ccccc3C2)C(=O)N1[C@@H](C(N)=O)c1ccc(F)cc1F` . Output its clearance only.
[out] 33 mL/min/kg

[in] // Input: `CC(C)C[C@@H]1C(=O)N[C@H](C2Cc3ccccc3C2)C(=O)N1[C@@H](C(=O)N1CC(O)C1)c1ccc(F)cc1F` . Output its clearance only.
[out] 19 mL/min/kg

---

- EXPERIMENT: Lipophilicity, log D by CHI method
- Type: physicochemical
- CONDITION SET: read-out: Log D
The entries below are paired with their reported chromatographic logD.
API note: the answer field is a bare number with no unit suffix.

Reference set (3 entries):
| MOLECULE | chromatographic logD |
| --- | --- |
| CC(C)C[C@@H]1C(=O)N[C@H](C2Cc3ccccc3C2)C(=O)N1[C@@H](C(=O)NCCO)c1ccc(F)cc1 | 2.3 |
| COc1ccc([C@H](C(=O)NC(C)(C)C)N2C(=O)[C@@H](C3Cc4ccccc4C3)NC(=O)[C@H]2CC(C)C)cc1F | 3.4 |
| CC(C)C[C@@H]1C(=O)N[C@H](C2Cc3ccccc3C2)C(=O)N1[C@@H](C(=O)NC(C)C)c1ccc(F)cc1F | 3.4 |

[in] // Input: `CC(C)C[C@@H]1C(=O)N[C@H](C2Cc3ccccc3C2)C(=O)N1[C@@H](C(N)=O)c1ccc(F)cc1F` . Output its chromatographic logD only.
[out] 2.5

[in] // Input: `CC(C)C[C@@H]1C(=O)N[C@H](C2Cc3ccccc3C2)C(=O)N1[C@@H](C(=O)N1CC(O)C1)c1ccc(F)cc1F` . Output its chromatographic logD only.
[out] 2.8

[in] // Input: `CC[C@@H](C)[C@@H]1C(=O)N[C@H](C2Cc3ccccc3C2)C(=O)N1[C@@H](C(=O)NC(C)C)c1ccc(N2CCOCC2)cc1` . Output its chromatographic logD only.
[out] 3

---

The entries below are paired with their reported Ki.
- SYSTEM UNDER TEST: Oxytocin receptor (Homo sapiens)
- EXPERIMENT: Displacement of [3H]oxytocin from human OTR
Provide the reading as a plain figure in nM.

Reference set (5 entries):
| MOLECULE | SYSTEM UNDER TEST | DATA VALUE |
| --- | --- | --- |
| CC(C)C[C@@H]1C(=O)N[C@H](C2Cc3ccccc3C2)C(=O)N1[C@@H](C(=O)NC(C)C)c1ccc(F)cc1F | Oxytocin receptor (Homo sapiens) | 1.26 |
| CC(C)C[C@@H]1C(=O)N[C@H](C2Cc3ccccc3C2)C(=O)N1[C@@H](C(=O)NC(C)(C)C)c1ccc2c(c1)CCO2 | Oxytocin receptor (Homo sapiens) | 3.98 |
| CC(C)C[C@@H]1C(=O)N[C@H](C2Cc3ccccc3C2)C(=O)N1[C@@H](C(=O)N1CCC1)c1ccc(F)cc1F | Oxytocin receptor (Homo sapiens) | 0.631 |
| CC(C)C[C@@H]1C(=O)N[C@H](C2Cc3ccccc3C2)C(=O)N1[C@@H](C(=O)NC(C)(C)C)c1ccc2c(c1)OCO2 | Oxytocin receptor (Homo sapiens) | 3.98 |
| CC(C)C[C@@H]1C(=O)N[C@H](C2Cc3ccccc3C2)C(=O)N1[C@@H](C(=O)NC(C)(C)C)c1ccc(N2CCC(O)CC2)cc1 | Oxytocin receptor (Homo sapiens) | 3.98 |

[in] // Input: `CC(C)C[C@@H]1C(=O)N[C@H](C2Cc3ccccc3C2)C(=O)N1[C@@H](C(=O)N(C)CCO)c1ccc(F)cc1F` . Output its Ki only.
[out] 0.126

[in] // Input: `CC(C)C[C@@H]1C(=O)N[C@H](C2Cc3ccccc3C2)C(=O)N1[C@@H](C(=O)N(C)C)c1ccc(F)cc1F` . Output its Ki only.
[out] 0.631

[in] // Input: `CC(C)C[C@@H]1C(=O)N[C@H](C2Cc3ccccc3C2)C(=O)N1[C@@H](C(=O)O)c1ccc(F)cc1F` . Output its Ki only.
[out] 0.631

---

- EXPERIMENT: AUC in dog
- Type: ADME, organism-based, Canis lupus familiaris
- Design: concentration or dose not given beside the values
- CONDITION SET: plasma
METRIC NAME: AUC

| MOLECULE | METRIC NAME | DATA VALUE |
| --- | --- | --- |
| CC(C)C[C@@H]1C(=O)N[C@H](C2Cc3ccccc3C2)C(=O)N1[C@@H](C(=O)N(C)C)c1ccc(F)cc1F | AUC | 770 ng·h/mL |
| CC(C)C[C@@H]1C(=O)N[C@H](C2Cc3ccccc3C2)C(=O)N1[C@@H](C(=O)O)c1ccc(F)cc1F | AUC | 23 ng·h/mL |

Now look at this one.
[in] // Input: `CC(C)C[C@@H]1C(=O)N[C@H](C2Cc3ccccc3C2)C(=O)N1[C@@H](C(=O)N1CCOCC1)c1ccc(F)cc1F` . Output its AUC only.
[out] 100 ng·h/mL
